Values were extracted from patent US20250179047A1.

Listing of recorded Ki by entry.
- MEASURED_ON: BCL2 D103Y (Homo sapiens, UniProt P10415, D103Y)
- ASSAY_OVERVIEW: TR-FRET competitive binding assay, BCL2 D103Y
- MEASUREMENT_SETUP: Ki determined from IC50, read-out: TR_FRET EKI_Bcl2 D103Y
READOUT_KIND: Ki (nM)

COMPOUND	UNIT_LABEL	REPORTED_MEASUREMENT
Cc1c(N(C(=O)c2cc(-c3cc4c(cc3C(=O)N3Cc5ccccc5C[C@H]3CN3CCCCC3)CN(C(=O)Cc3ccc(OCCN5CCO[C@@H](C)C5)cc3)CC4)n(C)c2C)c2ccc(O)cc2)cc(C#N)n1C	nM	0.08
Cc1c(N(C(=O)c2cc(-c3cc4c(cc3C(=O)N3Cc5ccccc5C[C@H]3CN3CCCCC3)CN(C(=O)Cc3ccc(OCCN(C)C5CC5)cc3F)CC4)n(C)c2C)c2ccc(O)cc2)cc(C#N)n1C	nM	0.27
Cc1c(C(=O)N(c2ccccc2)c2cnn(CCN(C)C)c2)cc(-c2cc3c(cc2C(=O)N2Cc4ccccc4C[C@H]2C)CN(C(=O)Cc2ccc(OCCC4CCOCC4)cc2)CC3)n1C	nM	0.04
Cc1c(C(=O)N(c2ccc(O)cc2)c2cc(C#N)n(C(F)F)c2C)cc(-c2cc3c(cc2C(=O)N2Cc4ccccc4C[C@H]2CN2CCCCC2)CN(C(=O)Cc2ccc(OCCN4CCOCC4)cc2F)CC3)n1C	nM	0.14
Cc1c(N(C(=O)c2cc(-c3cc4c(cc3C(=O)N3Cc5ccccc5C[C@H]3C)CN(C(=O)Cc3ccc(OCCN5CCC(O)CC5)cc3)CC4)n(C)c2C)c2ccc(O)cc2)cc(C#N)n1C	nM	0.19
COc1ccc(N(C(=O)c2cc(-c3cc4c(cc3C(=O)N3Cc5ccccc5C[C@H]3CN3CC5(CCC5)C3)CN(C(=O)Cc3ccc(OCCN5CCOCC5)cc3F)CC4)n(C)c2C)c2ccc(O)cc2)cc1C#N	nM	0.09
Cc1c(N(C(=O)c2cc(-c3cc4c(cc3C(=O)N3Cc5ccccc5C[C@H]3CN3CCCCC3)CN(C(=O)Cc3ccc(OCC(C)N5CCOCC5)cc3F)CC4)n(C)c2C)c2ccc(O)cc2)cc(C#N)n1C (single isomer, unassigned) [Example 141]	nM	0.2
Cc1c(N(C(=O)c2cc(-c3cc4c(cc3C(=O)N3Cc5ccccc5C[C@H]3CN3CCC(C)(C)C3)CN(C(=O)Cc3ccc(OCCN5CCOCC5)cc3F)CC4)n(C)c2C)c2ccc(O)cc2)cc(C#N)n1C	nM	0.12
Cc1c(N(C(=O)c2cc(-c3cc4c(cc3C(=O)N3Cc5ccccc5C[C@H]3C)CN(C(=O)Cc3ccc(OCCN5CCOCC5)cc3)CC4)n(C)c2C)c2ccccc2)cc(C#N)n1C [Example 65]	nM	0.8

###

- MEASURED_ON: BCL2 G101V (Homo sapiens, UniProt P10415, G101V)
- ASSAY_OVERVIEW: TR-FRET competitive binding assay, BCL2 G101V
- MEASUREMENT_SETUP: BCL2 G101V; Ki determined from IC50; read-out: TR_FRET EKI_Bcl2 G101V
Listing of recorded Ki by entry.
READOUT_KIND: Ki (nM)

MOLECULE	UNIT_LABEL	REPORTED_MEASUREMENT
Cc1c(N(C(=O)c2cc(-c3cc4c(cc3C(=O)N3Cc5ccccc5C[C@H]3C)CN(C(=O)Cc3ccc(OCCN5CCOCC5)cc3)CC4)n(C)c2C)c2ccccc2)cc(C#N)n1C [Example 65]	nM	0.7
Cc1c(N(C(=O)c2cc(-c3cc4c(cc3C(=O)N3Cc5ccccc5C[C@H]3C)CN(C(=O)Cc3ccc(OCCN(C)C5CC5)nc3)CC4)n(C)c2C)c2ccc(O)cc2)cc(C#N)n1C	nM	0.2
Cc1c(C(=O)N(c2ccc(O)cc2)c2cnn(C(F)F)c2)cc(-c2cc3c(cc2C(=O)N2Cc4ccccc4C[C@H]2C)CN(C(=O)Cc2ccc(OCCN4CCOCC4)cc2F)CC3)n1C	nM	0.2
Cc1c(N(C(=O)c2cc(-c3cc4c(cc3C(=O)N3Cc5ccccc5C[C@H]3CN3CCC[C@H](C)C3)CN(C(=O)Cc3ccc(OCCN(C)C5CC5)cc3)CC4)n(C)c2C)c2ccc(O)cc2)cc(C#N)n1C	nM	1
Cc1c(N(C(=O)c2cc(-c3cc4c(cc3C(=O)N3Cc5ccccc5C[C@H]3CN3CCCCC3)CN(C(=O)Cc3ccc(OCCC5COCCO5)cc3F)CC4)n(C)c2C)c2ccc(O)cc2)cc(C#N)n1C (single isomer, unassigned) [Example 175]	nM	0.5
Cc1c(N(C(=O)c2cc(-c3cc4c(cc3C(=O)N3Cc5ccccc5C[C@H]3CN3CCCCC3)CN(C(=O)Cc3ccc(OCCN5CCOCC5)cc3F)CC4)n(C)c2C)c2ccccc2)cc(C#N)n1C	nM	0.9
Cc1c(C(=O)N(c2ccc(O)cc2)c2cnn(C)c2)cc(-c2cc3c(cc2C(=O)N2Cc4ccccc4C[C@H]2C)CN(C(=O)Cc2ccc(OCCC4CCOCC4)cc2)CC3)n1C	nM	1.1
Cc1c(N(C(=O)c2cc(-c3cc4c(cc3C(=O)N3Cc5ccccc5C[C@H]3C)CN(C(=O)Cc3ccc(OCCN5CCN(C6CC6)CC5)cc3)CC4)n(C)c2C)c2ccc(O)cc2)cc(C#N)n1C	nM	0.3
CCN(C[C@@H]1Cc2ccccc2CN1C(=O)c1cc2c(cc1-c1cc(C(=O)N(c3ccc(O)cc3)c3cc(C#N)n(C)c3C)c(C)n1C)CCN(C(=O)Cc1ccc(OCCN3CCOCC3)cc1F)C2)C(C)C	nM	0.4
Cc1c(C(=O)N(c2ccc(O)cc2)c2cc(C#N)n(C(F)F)c2C)cc(-c2cc3c(cc2C(=O)N2Cc4ccccc4C[C@H]2CN2CCCCC2)CN(C(=O)Cc2ccc(OCCN4C[C@@H](C)O[C@@H](C)C4)cc2)CC3)n1C	nM	0.8

###

- MEASURED_ON: BCL2 G101V (Homo sapiens, UniProt P10415, G101V)
- ASSAY_OVERVIEW: TR-FRET competitive binding assay, BCL2 G101V
- MEASUREMENT_SETUP: BCL2 G101V; Ki determined from IC50; read-out: TR_FRET EKI_Bcl2 G101V
READOUT_KIND: log10(Ki) (log10 of the value in pM)

MOLECULE	MEASURED_ON	log10(Ki)
Cc1nn(C)cc1N(C(=O)c1cc(-c2cc3c(cc2C(=O)N2Cc4ccccc4C[C@H]2C)CN(C(=O)Cc2ccc(OCCN4CCOCC4)cc2)CC3)n(C)c1C)c1ccccc1 [Example 188]	BCL2 G101V (Homo sapiens, UniProt P10415, G101V)	3.34
Cc1c(N(C(=O)c2cc(-c3cc4c(cc3C(=O)N3Cc5ccccc5C[C@H]3CN3CCCCC3)CN(C(=O)Cc3ccc(OCCN(C)CCF)cc3F)CC4)n(C)c2C)c2ccc(O)cc2)cc(C#N)n1C [Example 134]	BCL2 G101V (Homo sapiens, UniProt P10415, G101V)	2.48
Cc1c(N(C(=O)c2cc(-c3cc4c(cc3C(=O)N3Cc5ccccc5C[C@H]3C)CN(C(=O)Cc3ccc(OCCN5CCOCC5)cc3)CC4)n(C)c2C)c2ccccc2)cnn1C(F)F [Example 215]	BCL2 G101V (Homo sapiens, UniProt P10415, G101V)	3.66
Cc1c(C(=O)N(c2ccc(O)cc2)c2cc(C#N)n(C(C)C)c2C)cc(-c2cc3c(cc2C(=O)N2Cc4ccccc4C[C@H]2C)CN(C(=O)Cc2ccc(OCCN4CCOCC4)cc2)CC3)n1C [Example 64]	BCL2 G101V (Homo sapiens, UniProt P10415, G101V)	2.70
Cc1ccc(N(C(=O)c2cc(-c3cc4c(cc3C(=O)N3Cc5ccccc5C[C@H]3C)CN(C(=O)Cc3ccc(OCCN5CCOCC5)cc3F)CC4)n(C)c2C)c2ccccc2)cc1C#N [Example 203]	BCL2 G101V (Homo sapiens, UniProt P10415, G101V)	2.70
Cc1c(N(C(=O)c2cc(-c3cc4c(cc3C(=O)N3Cc5ccccc5C[C@H]3C)CN(S(=O)(=O)Cc3ccccc3)CC4)n(C)c2C)c2ccc(O)cc2)cc(C#N)n1C [Example 14]	BCL2 G101V (Homo sapiens, UniProt P10415, G101V)	3.69
Cc1nn(C)cc1N(C(=O)c1cc(-c2cc3c(cc2C(=O)N2Cc4ccccc4C[C@H]2C)CN(C(=O)Cc2ccc(OCCN(C)C)cc2F)CC3)n(C)c1C)c1ccccc1 [Example 222]	BCL2 G101V (Homo sapiens, UniProt P10415, G101V)	3.80
CCN(CC)C[C@@H]1Cc2ccccc2CN1C(=O)c1cc2c(cc1-c1cc(C(=O)N(c3ccc(O)cc3)c3cc(C#N)n(C)c3C)c(C)n1C)CCN(C(=O)Cc1ccc(OCCN3CCOCC3)cc1F)C2 [Example 137]	BCL2 G101V (Homo sapiens, UniProt P10415, G101V)	2.48
COc1ncc(N(C(=O)c2cc(-c3cc4c(cc3C(=O)N3Cc5ccccc5C[C@H]3C)CN(C(=O)Cc3cccc(N5CC6(CN(C)C6)C5)c3)CC4)n(C)c2C)c2ccccc2)cc1F [Example 198]	BCL2 G101V (Homo sapiens, UniProt P10415, G101V)	3.15
Cc1c(C(=O)N(c2ccc(O)cc2)c2cnn3c2CCCC3)cc(-c2cc3c(cc2C(=O)N2Cc4ccccc4C[C@H]2C)CN(C(=O)Cc2ccc(OCCN4CCOCC4)cc2)CC3)n1C [Example 147]	BCL2 G101V (Homo sapiens, UniProt P10415, G101V)	2.48
Cc1c(N(C(=O)c2cc(-c3cc4c(cc3C(=O)N3Cc5ccccc5C[C@H]3CN3CCCCC3)CN(C(=O)Cc3ccc(OCCN(C)C5CC5)cc3)CC4)n(C)c2C)c2ccc(O)cc2)cc(C#N)n1C [Example 102]	BCL2 G101V (Homo sapiens, UniProt P10415, G101V)	2.60
Cc1c(C(=O)N(c2ccccc2)c2cc(F)cc(C#N)c2)cc(-c2cc3c(cc2C(=O)N2Cc4ccccc4C[C@H]2C)CN(C(=O)Cc2ccc(OCCN4CCOCC4)cc2F)CC3)n1C [Example 227]	BCL2 G101V (Homo sapiens, UniProt P10415, G101V)	4.03
Cc1c(N(C(=O)c2cc(-c3cc4c(cc3C(=O)N3Cc5ccccc5C[C@H]3CN3CC5(CC5)C3)CN(C(=O)Cc3ccc(OCCN5CCOCC5)cc3F)CC4)n(C)c2C)c2ccc(O)cc2)cc(C#N)n1C [Example 145]	BCL2 G101V (Homo sapiens, UniProt P10415, G101V)	2.30
Cc1c(N(C(=O)c2cc(-c3cc4c(cc3C(=O)N3Cc5ccccc5C[C@H]3C)CN(C(=O)Cc3ccc(Br)cc3F)CC4)n(C)c2C)c2ccc(O)cc2)cc(C#N)n1C [Example 24]	BCL2 G101V (Homo sapiens, UniProt P10415, G101V)	3.26
Cc1c(N(C(=O)c2cc(-c3cc4c(cc3C(=O)N3Cc5ccccc5C[C@H]3CN3CCCCC3)CN(C(=O)Cc3ccc(OCCN5CCOCC5(C)C)cc3)CC4)n(C)c2C)c2ccc(O)cc2)cc(C#N)n1C [Example 148]	BCL2 G101V (Homo sapiens, UniProt P10415, G101V)	2.48
Cc1cc(OCCN2CCOCC2)ccc1CC(=O)N1CCc2cc(-c3cc(C(=O)N(c4ccc(O)cc4)c4cc(C#N)n(C)c4C)c(C)n3C)c(C(=O)N3Cc4ccccc4C[C@H]3CN3CCCCC3)cc2C1 [Example 113]	BCL2 G101V (Homo sapiens, UniProt P10415, G101V)	2.48
Cc1c(C(=O)N(c2ccccc2)c2cccc(C#N)c2)cc(-c2cc3c(cc2C(=O)N2Cc4ccccc4C[C@H]2C)CN(C(=O)Cc2ccc(OCCN4CCOCC4)cc2)CC3)n1C [Example 218]	BCL2 G101V (Homo sapiens, UniProt P10415, G101V)	3.18
Cc1c(N(C(=O)c2cc(-c3cc4c(cc3C(=O)N3Cc5ccccc5C[C@H]3CN3CCCCC3)CN(C(=O)Cc3ccc(OCCN(C)C5COC5)cc3F)CC4)n(C)c2C)c2ccc(O)cc2)cc(C#N)n1C [Example 105]	BCL2 G101V (Homo sapiens, UniProt P10415, G101V)	2.30
Cc1c(C(=O)N(c2ccc(O)cc2)c2cc(C#N)n(C(F)F)c2C)cc(-c2cc3c(cc2C(=O)N2Cc4ccccc4C[C@H]2CN2CCCCC2)CN(C(=O)Cc2ccc(OCCN4CCOC(C)C4)cc2F)CC3)n1C (single isomer, unassigned) [Example 162]	BCL2 G101V (Homo sapiens, UniProt P10415, G101V)	2.78
